Provenance of the data: ChEMBL document CHEMBL4513216

As shown below, each of these compounds has a reported cytotoxicity at 10 µM value.
- experiment summary: Toxicity liver stage against HepG2, at 10uM
- Assay type: cell-based
- Parameters: test concentration 10 uM, cell line HepG2-A16-CD81EGFP
- particulars: human, HepG2-A16-CD81EGFP cells; read-out: INHIBITION
Respond numerically; units are % and should not be typed.

These solved cases illustrate the format of a correct answer.
Name the recorded cytotoxicity at 10 µM for Cc1csc(CCNC(=O)C2CCOC2)n1 (stereo unspecified) .
-6.17

Name the recorded cytotoxicity at 10 µM for Cc1nc(CN(C)Cc2cc3c(cc2OC(F)F)OCO3)cs1 .
8.68

Name the recorded cytotoxicity at 10 µM for Fc1cc(CN2CCCC2Cn2cncn2)c2ncccc2c1 (stereo unspecified) .
-14.1

---
Name the recorded cytotoxicity at 10 µM for CCN1C[C@@H](C(=O)O)[C@H](c2cccc(OC)c2)C1 .
-19

Name the recorded cytotoxicity at 10 µM for Cc1ccc(C(C(=O)N2CC(c3ccccn3)C2)N(C)C)cc1 (stereo unspecified) .
-9.82

Name the recorded cytotoxicity at 10 µM for CCN(C)c1ncnc2c1CCN(C(=O)c1ccno1)CC2 .
-10

* * *

As shown below, each of these molecules has a reported cytotoxicity at 10 µM value.
- experiment summary: Toxicity liver stage against HepG2, at 10uM
- Type: cell-based
- Parameters: test concentration 10 uM, cell line HepG2-A16-CD81EGFP
- particulars: human, HepG2-A16-CD81EGFP cells; read-out: INHIBITION
Respond numerically; units are % and should not be typed.

These solved cases illustrate the format of a correct answer.
Name the recorded cytotoxicity at 10 µM for c1ccc(-c2cnc3n2CCNC32CCNCC2)cc1 .
-2.2

Name the recorded cytotoxicity at 10 µM for Cc1nccn1CCC1CCN(c2ncccn2)CC1 .
-3

Name the recorded cytotoxicity at 10 µM for Cc1nn(C)c(Oc2ccc(Cl)cc2)c1CN1CC[C@H](CO)[C@@H](O)C1 .
-10.5

Name the recorded cytotoxicity at 10 µM for Cn1nccc1-c1ncc(-c2cc(C(=O)O)n(CC3CC3)c2)cn1 .
1.55

Name the recorded cytotoxicity at 10 µM for CNC(=O)c1cccc(CN2CCC(N(C)Cc3ncc(C)o3)C2)c1 (stereo unspecified) .
-103

---
Name the recorded cytotoxicity at 10 µM for Cc1nc(CCNCc2c(C)nn(C)c2N2CCOCC2)cs1 .
-11.5

* * *

- experiment summary: Toxicity liver stage against HepG2, at 10uM
- Type: cell-based
- Parameters: test concentration 10 uM, cell line HepG2-A16-CD81EGFP
- particulars: human, HepG2-A16-CD81EGFP cells; read-out: INHIBITION
quantity kind: cytotoxicity at 10 µM (%)
Respond numerically; units are % and should not be typed.

These solved cases illustrate the format of a correct answer.
Name the recorded cytotoxicity at 10 µM for Cc1cccc(CN2C[C@H](NS(C)(=O)=O)[C@@H]3OCCC[C@@H]32)n1 .
-0.179

Name the recorded cytotoxicity at 10 µM for O[C@@H]1CC(CNCC2CCCC2)(COc2cccnc2)C[C@@H]1O (stereo partly specified) .
-6.53

---
Name the recorded cytotoxicity at 10 µM for COc1cc(C2SCC(=O)Nc3[nH]ncc32)c(OC)c2c1OCO2 (stereo unspecified) .
6.63

Name the recorded cytotoxicity at 10 µM for CSc1ccc(C(C)NC(=O)c2cc(C)on2)cc1 (stereo unspecified) .
6.01

Name the recorded cytotoxicity at 10 µM for Cc1cc(C2CCCN2Cc2cccc(C(=O)Nc3nccs3)c2)no1 (stereo unspecified) .
-4.12

Name the recorded cytotoxicity at 10 µM for Cc1cccc(CN2C[C@@H]3CN(C(=O)c4ccco4)C[C@@H]3C2=O)c1 .
-3.72

Name the recorded cytotoxicity at 10 µM for Cc1cc(C2CCCN(S(=O)(=O)N(C)C)C2)ccn1 (stereo unspecified) .
21.4

Name the recorded cytotoxicity at 10 µM for O=C(c1cccnc1N1CCOC(c2ccc(Cl)cc2)C1)N1CCCC1 (stereo unspecified) .
7.21
